# Study target: Serine hydroxymethyltransferase, mitochondrial (Homo sapiens) (UniProt P34897)
# Sequence (P34897 whole entry): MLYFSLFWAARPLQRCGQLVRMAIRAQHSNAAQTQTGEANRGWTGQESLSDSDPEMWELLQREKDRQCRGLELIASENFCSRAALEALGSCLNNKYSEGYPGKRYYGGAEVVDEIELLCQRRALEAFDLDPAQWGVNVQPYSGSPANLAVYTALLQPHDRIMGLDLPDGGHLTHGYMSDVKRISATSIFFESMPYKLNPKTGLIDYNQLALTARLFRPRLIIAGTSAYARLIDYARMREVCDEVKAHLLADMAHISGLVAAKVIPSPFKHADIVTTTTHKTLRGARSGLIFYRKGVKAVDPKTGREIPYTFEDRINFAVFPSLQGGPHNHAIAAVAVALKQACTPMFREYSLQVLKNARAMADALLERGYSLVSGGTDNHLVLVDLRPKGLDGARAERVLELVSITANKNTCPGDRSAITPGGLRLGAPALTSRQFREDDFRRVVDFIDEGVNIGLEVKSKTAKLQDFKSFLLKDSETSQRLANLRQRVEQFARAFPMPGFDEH
# Test description: Inhibition of His-tagged human recombinant SHMT2 expressed in Escherichia coli BLR(DE3) assessed as reduction in NADPH level using L-serine, THF and NADP+ at 6.5 or 26.5 uM incubated for 5 mins by SHMT2-MTHFD coupled reaction based fluorescence assay relative to control
Endpoint label: inhibition (%)
Form entry: value (%) — number only.

*Q* Field request: inhibition | item: CNCC[C@H](Oc1cccc2ccccc12)c1cccs1
*A* 83.8

*Q* Find the recorded inhibition belonging to COc1ccc2c(c1O)-c1c(OC)c(OC)cc3c1C(C2)N(C)CC3 (stereo unspecified) and report it.
*A* 69.3

*Q* Could you tell me which inhibition is on file for c1ccc2c(N3CCNCC3)cccc2c1 ?
*A* 86.1

*Q* May I ask what inhibition has been recorded for COC(=O)/C=C(/Nc1cc(OC)ccc1OC)C(=O)OC ?
*A* 56.3

*Q* Data request, read-out inhibition, for CN1CCN(CCCN2c3ccccc3SC3C=CC(Cl)=CC32)CC1 (stereo unspecified)
*A* 61.6

*Q* What measured inhibition goes with Cc1cc(/C=C/c2ccc3cc(N(C)C)ccc3[n+]2C)c(C)n1-c1ccccc1 ?
*A* 88.2

*Q* What value of inhibition has been reported for the following compound? COc1ccc(Cc2nccc3cc(OC)c(OC)cc23)cc1OC
*A* 59.2

*Q* I am curious: what inhibition value has been reported for Cc1cccc(C)c1NC(=O)[C@@H]1CCCCN1C ?
*A* 60.1

*Q* // inhibition lookup, key: CS(=O)(=O)c1ccc2ccn(O)c2c1
*A* 60.3

*Q* Tell me the measured inhibition of COc1cc(OC)c2c(c1Cl)OC1(C2=O)C(O)=CC(=O)CC1C (stereo unspecified) , please.
*A* 77.8

*Q* Entry O=C(Nc1cccc2c(=O)cc(-c3nnn[nH]3)oc12)c1ccc(OCCCCc2ccccc2)cc1 : reported inhibition = ?
*A* 65.5

*Q* I have this compound here, CC(C(=O)Nc1cccc(/N=C/c2c(O)ccc3ccccc23)c1)c1ccccc1 (stereo unspecified) , and I need its recorded inhibition.
*A* 60.1

*Q* Tell me the measured inhibition of CCOC(=O)Nc1ccc(NCc2ccc(F)cc2)nc1N , please.
*A* 86.1

*Q* // lookup inhibition for COc1cc(NC(C)CCCN)c2ncccc2c1 (stereo unspecified)
*A* 91.9

*Q* I'd like to know its inhibition. The compound in question is CN1CC[C@@]2(C)c3cc(OC(=O)Nc4ccccc4)ccc3N(C)[C@@H]12
*A* 56.6

*Q* What inhibition value was documented for this compound, Cc1onc(-c2c(Cl)cccc2Cl)c1NC(=O)Nc1ccc(N(C)C)c(Cl)c1C#N ?
*A* 97.1

*Q* Look at this compound and give its reported inhibition. COc1ccc(OC)c(NC(=S)N2CCN(c3ncc(C(F)(F)F)cc3Cl)CC2)c1
*A* 60.2

*Q* Entry COC(=O)[C@@H]1[C@H]2C[C@H]3c4[nH]c5ccccc5c4CCN3C[C@@H]2CC[C@@H]1O has what inhibition?
*A* 57.4

*Q* State the recorded inhibition for this entry: CC(=O)C1CC[C@H]2C3CC[C@H]4C[C@H](O)CC[C@]4(C)C3CC[C@]12C (stereo partly specified)
*A* 65.9

*Q* inhibition lookup needed for Cc1cccc(CCN2CCC(C(=O)c3ccc(NS(C)(=O)=O)cc3)CC2)n1 , thanks.
*A* 54.9

*Q* Recorded inhibition for COC(=O)CC1C(C)(C)C(OC(C)=O)[C@@H]2[C@@H](OC(C)=O)[C@]34O[C@@H]2[C@]1(C)C3CC[C@]1(C)C4=CC(=O)O[C@H]1c1ccoc1 (stereo partly specified) , please?
*A* 52.4
